Measurement target: T1, LAG3 Protein, Human, Recombinant (His Tag) (Sino Biological Catalog No. 16498-H08H) (human, UniProt P18627 23-450)
T1 construct: Bought protein; also called hLAG3-His; LAG3-His; not shown: His tag
T1 sequence (looked up): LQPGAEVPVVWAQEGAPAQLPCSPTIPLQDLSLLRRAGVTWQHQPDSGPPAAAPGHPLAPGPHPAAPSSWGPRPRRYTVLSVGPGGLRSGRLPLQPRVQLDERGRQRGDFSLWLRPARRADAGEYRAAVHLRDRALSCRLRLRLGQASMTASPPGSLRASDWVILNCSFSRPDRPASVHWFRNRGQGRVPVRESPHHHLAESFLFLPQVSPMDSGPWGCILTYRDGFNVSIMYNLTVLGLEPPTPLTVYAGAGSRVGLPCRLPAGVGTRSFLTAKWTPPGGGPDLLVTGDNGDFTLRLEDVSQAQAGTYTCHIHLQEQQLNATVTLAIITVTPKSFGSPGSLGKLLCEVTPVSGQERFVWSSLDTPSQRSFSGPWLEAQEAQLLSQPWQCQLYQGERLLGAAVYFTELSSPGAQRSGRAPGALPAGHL
Protocol: ELISA, coated hLAG3-His
Known OD450 at 133.335 nM of a selection of binders
Write the value as a bare number.

Worked cases, OD450 at 133.335 nM given:
sdAb No. 25-B5 (VHH, Humanized sdAb No. 25; not shown: Fc part implied by anti-human IgG1 Fc detection) VHH: QVQLVESGGGLVKPGGSLRLSCAASGSIESFSFMGWYRQAPGKQREWVAGFTGAASLSFSTYTDAVKGRFTISRDNAKNSLYLQMNSLRAEDTAVYYCNVDPWSQSWPGRYWGQGTTVTVSS	0.163
sdAb No. 27-H1B3 (VHH, Humanized sdAb No. 27-H1; not shown: Fc part implied by anti-human IgG Fc detection) VHH: QVQLVESGGGLVQPGGSLRLSCAASGFTLDYYAIGWFRQAPGKEREGVSCIRSSDASTYYADSVKGRFTISSDNSKNTVYLQMNSLRAEDTAVYYCATDRYSDCRGPYENWGQGTMVTVSS	2.99
sdAb No. 27 (VHH, Fc of the tested form not described; also called sdAb 27; not shown: Fc part implied by anti-human Fc capture and anti-human IgG Fc detection) VHH: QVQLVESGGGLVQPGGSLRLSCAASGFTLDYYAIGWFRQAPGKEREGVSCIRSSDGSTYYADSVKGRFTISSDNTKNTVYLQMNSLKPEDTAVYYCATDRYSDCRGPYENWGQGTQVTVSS	1.95
sdAb No. 25-B7 (VHH, Humanized sdAb No. 25; not shown: Fc part implied by anti-human IgG Fc detection) VHH: QLQLVESGGGLVKPGGSLRLSCAASGSIESFSFMGWYRQAPGKQRELVAGFTGAASLSFSTYTDAVKGRFTISRDNAKNSVYLQMNSLRAEDTAVYFCNVDPWSQSWPGRYWGQGTTVTVSS	1.66
sdAb No. 25 (VHH, Fc of the tested form not described; also called sdAb 25; sdAb #25; not shown: Fc part implied by anti-human Fc capture and anti-human IgG Fc detection) VHH: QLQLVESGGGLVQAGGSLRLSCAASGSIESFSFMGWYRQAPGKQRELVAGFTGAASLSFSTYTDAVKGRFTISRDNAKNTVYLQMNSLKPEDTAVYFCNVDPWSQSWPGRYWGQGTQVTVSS	1.02

Now turn to the next binder.
Inquiry: Given the binder sdAb No. 25-B6 (VHH, Humanized sdAb No. 25; not shown: Fc part implied by anti-human IgG1 Fc detection) VHH: QLQLVESGGGLVKPGGSLRLSCAASGSIESFSFMGWYRQAPGKQREWVAGFTGAASLSFSTYTDAVKGRFTISRDNAKNSVYLQMNSLRAEDTAVYYCNVDPWSQSWPGRYWGQGTTVTVSS , write its reported OD450 at 133.335 nM.
Reply text: 0.128
